Could you please report measured Blocking Efficiency (%) for the items listed next?
- measured_on: T1, recombinant human PD-L1 extracellular domain (ECD) protein (cat #FCL0784B, G&P Biosciences) (human, UniProt Q9NZQ7 19-238)
- T1 construct: extracellular domain; Bought protein; also called hPD-L1 protein; human PD-L1 protein
- protocol_details: ELISA, blocking of PD-1 binding to coated human PD-L1 protein
- Description: Various concentrations of peptides were loaded into the wells and incubated for 1 hour at room temperature. […] Streptavidin-HRP (R&D systems) and chromogenic substrate were added into the wells. OD₄₅₀ was then recorded and referenced to OD₅₄₀.
No end group written: not given here.
Write it as a number; the unit % goes unstated.

Given the entry WHRSYYTWNLNT (not fully specified, 12-mer from phage display) [CLP002 peptide] , report its measured Blocking Efficiency (%). 85

Request: WHFSYNWRWLPP (not fully specified, 12-mer from phage display) [CLP003 peptide] 60

Proceed to DYHDPSLPTLRK (not fully specified, 12-mer from phage display) [CLP004 peptide] 52

Also, HYPFRPHANQAS (not fully specified, 12-mer from phage display) [CLP001 peptide] please. 0
